tested on: ENR+CD organoids; test: Primary screen: ATP (CellTiter-Glo 3D, CTG) cell number/viability, 2.5-D 384-well ENR+CD organoids; settings: primary screen; dose 10.00 uM; FC vs plate median;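 also: compounds given at plating and again on day 3 over a 6-day differentiation from ENR+CV stem-cell-enriched precursors, ATP measured on day 6, plate median as control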
experimentalEndpoint: Dose.FC.CTG (log2 fold change)
Please respond with the number in log2 fold change and leave the unit unwritten.

1. O=[N+]([O-])C=Cc1ccc2c(c1)OCO2 :: −0.197

What does the data say about its Dose.FC.CTG? Entry: CCCC(C)NC(=O)c1ccc(Cl)c(Cl)c1 (stereo not drawn) [NSC 405020]
−0.058

Would you kindly repeat that for Cc1ccc(S(=O)(=O)c2ccc([N+](=O)[O-])o2)cc1 [NSC697923] ?
−0.782

Subsequent entry: CCc1c(C(=O)NCCc2ccc(N3CCCCC3)cc2)[nH]c2ccc(Cl)cc12 [Org 27569]
0.270

Moving on to Nc1cccc2c1C(=O)N(C1CCC(=O)NC1=O)C2=O (stereo not drawn) [Pomalidomide]
−0.305

Param item: Nc1nc(CC(=O)Nc2ccc(CCNC[C@H](O)c3ccccc3)cc2)cs1 [Mirabegron]
−0.051

Try NC(=O)N1c2ccccc2CC(=O)c2ccccc21 [Oxcarbazepine] next.
−0.150

// repeat for Cc1cnc(-c2cc(N3CCN(C(=O)CCS(C)(=O)=O)CC3)ncc2Cl)c(C)c1 [PF-5274857] and report
−0.076

Queued: COc1ccccc1S(=O)(=O)Nc1ccc2c(c1)CN(C)C(=O)N2 [PFI-1 (PF-6405761)]
−0.389

====

Measured Dose.FC.LYZ.NS, listed per entry.
tested on: ENR+CD organoids (ISC to Paneth cell differentiation); assay: Primary screen: basal (non-stimulated) lysozyme secretion LYZ.NS, 2.5-D 384-well ENR+CD organoid differentiation; format: cell-based, mouse; conditions: primary screen, dose 0.08 uM, FC relative to plate median
The reply should be a number in log2 fold change, with the unit left off.

1. CNC(=O)c1cc(Oc2ccc(NC(=O)Nc3ccc(Cl)c(C(F)(F)F)c3)cc2)ccn1 :: 0.052

Requested read-out: Dose.FC.LYZ.NS. Entry: O=[N+]([O-])c1ccc2c(c1)S(=O)(=O)C=C2
0.130

Subsequent entry: COc1cc2c(N3CCN(C(=O)Nc4ccc(OC(C)C)cc4)CC3)ncnc2cc1OCCCN1CCCCC1
0.095

Next entry: COc1cc(OC)c(/C=C/S(=O)(=O)Cc2ccc(OC)c(NCC(=O)O)c2)c(OC)c1
−0.242

Also COc1cc(Br)c(Nc2nc(-c3c(C)nc4ncccn34)cs2)c(Br)c1 ?
0.034

Please answer likewise for Cc1cc(Nc2ccc(NC(=O)c3ccc(Nc4ccnc5ccccc45)cc3)cc2)nc(N)n1
0.061

Try O=C(Nc1cc(C(F)(F)F)ccc1N1CCCCC1)c1ccncc1 next.
0.115

Lookup Cc1nnc(C(=O)NC(C)(C)c2nc(C(=O)NCc3ccc(F)cc3)c(O)c(=O)n2C)o1
0.187

====

Dose.FC.LYZ.NS by entry:
test system: ENR+CD organoids (ISC to Paneth cell differentiation); test: Primary screen: basal (non-stimulated) lysozyme secretion LYZ.NS, 2.5-D 384-well ENR+CD organoid differentiation; assay type: cell-based, mouse; details: primary screen, dose 0.40 uM
Give your result in log2 fold change as a bare value.

The following molecules have reported results that may help.
1. O=c1ncn2nc(Sc3ccc(F)cc3F)ccc2c1-c1c(Cl)cccc1Cl :: 0.004
2. CS(=O)(=O)N1CCN(Cc2cc3nc(-c4cccc5[nH]ncc45)nc(N4CCOCC4)c3s2)CC1 :: −0.013
3. CC(C)(C)c1nc(-c2cccc(NS(=O)(=O)c3c(F)cccc3F)c2F)c(-c2ccnc(N)n2)s1 :: 0.049
4. CC[C@H](NC(=O)[C@H](C)NC)C(=O)N1C[C@@H](O)C[C@H]1Cc1c(-c2[nH]c3cc(F)ccc3c2C[C@@H]2C[C@H](O)CN2C(=O)[C@H](CC)NC(=O)[C@H](C)NC)[nH]c2cc(F)ccc12 :: −0.012
5. C=C1C[C@@H]2[C@H](CC[C@]3(C)C(=O)CC[C@@H]23)[C@@]2(C)C=CC(=O)C=C12 :: 0.079

Value lookup for Dose.FC.LYZ.NS; key = O=C(O)C(Cc1ccccc1[N+](=O)[O-])=NNc1nc(-c2ccc(Cl)c(Cl)c2)cs1 (mixture of isomers)
0.036

Entry to check: CCOC(=O)c1cncn1[C@H](C)c1ccccc1 [Etomidate]
0.037
